Tested on: Staphylococcus aureus ATCC29213
assayExplanation: MIC, microbroth dilution
Type: cell-based
conditionNotes: rifS, Cation-Adjusted Mueller-Hinton Broth, 37° C., read-out: MIC
Task for the reader: assign each of the following compounds its reported MIC.

// query // fetch MIC given entry COc1c(N2CCCC(NC3CCN(C(=O)O[C@H]4[C@H](C)[C@H](O)[C@H](C)[C@@H](O)[C@@H](C)/C=C/C=C(/C)C(=O)NC5=C(N6CCOCC6)C(=O)c6c(c(O)c(C)c7c6C(=O)[C@@](C)(O/C=C/[C@H](OC)[C@H]4C)O7)C5=O)CC3)C2)c(F)cc2c(=O)c(C(=O)O)cn(C3CC3)c12 (some centres unmarked) [Example 59]
// result 0.002 to 1.95 µg/mL

// query // fetch MIC given entry CO[C@H]1/C=C/O[C@@]2(C)Oc3c(C)c(O)c4c(c3C2=O)C(=O)C(N2CCOCC2)=C(NC(=O)/C(C)=C\C=C\[C@H](C)[C@H](O)[C@@H](C)[C@@H](O)[C@@H](C)[C@H](OC(=O)N2CCN(C)CC2)[C@@H]1C)C4=O [Example 6]
// result 0.002 to 1.95 µg/mL

====

Test system: Staphylococcus aureus ATCC29213
assayExplanation: MIC, microbroth dilution
Assay type: cell-based
conditionNotes: rifS, Cation-Adjusted Mueller-Hinton Broth, 37° C., read-out: MIC
Task for the reader: assign each of the following compounds its reported MIC.

// query // fetch MIC given entry CO[C@H]1/C=C/O[C@@]2(C)Oc3c(C)c(O)c4c(c3C2=O)C(=O)C(N2CCOCC2)=C(NC(=O)/C(C)=C\C=C\[C@H](C)[C@H](O)[C@@H](C)[C@@H](O)[C@@H](C)[C@H](OC(=O)NCCc2ccc(Cl)cc2)[C@@H]1C)C4=O [Example 38]
// result 0.002 to 1.95 µg/mL

// query // fetch MIC given entry COc1cncc(NC(=O)c2ccc(N3CCN(C(=O)O[C@H]4[C@H](C)[C@H](O)[C@H](C)[C@@H](O)[C@@H](C)/C=C/C=C(/C)C(=O)NC5=C(N6CCOCC6)C(=O)c6c(c(O)c(C)c7c6C(=O)[C@@](C)(O/C=C/[C@H](OC)[C@H]4C)O7)C5=O)CC3)c(C(F)(F)F)c2)c1 [Example 53]
// result 0.002 to 1.95 µg/mL

====

System: Staphylococcus aureus ATCC29213
assayExplanation: MIC, microbroth dilution
Type: cell-based
conditionNotes: rifS, Cation-Adjusted Mueller-Hinton Broth, 37° C., read-out: MIC
Task for the reader: assign each of the following molecules its reported MIC.

// query // fetch MIC given entry CO[C@H]1/C=C/O[C@@]2(C)Oc3c(C)c(O)c4c(c3C2=O)C(=O)C(N2CCOCC2)=C(NC(=O)/C(C)=C\C=C\[C@H](C)[C@H](O)[C@@H](C)[C@@H](O)[C@@H](C)[C@H](OC(=O)NCCN2CCCC2)[C@@H]1C)C4=O [Example 32]
// result 0.002 to 1.95 µg/mL

// query // fetch MIC given entry CO[C@H]1/C=C/O[C@@]2(C)Oc3c(C)c(O)c4c(c3C2=O)C(=O)C(N2CCOCC2)=C(NC(=O)/C(C)=C\C=C\[C@H](C)[C@H](O)[C@@H](C)[C@@H](O)[C@@H](C)[C@H](OC(=O)NCC(C)C)[C@@H]1C)C4=O [Example 7]
// result 0.002 to 1.95 µg/mL
